Test: NCI Yeast Anticancer Drug Screen. Data for the mec2-1 strain (AID 157)
Conditions: S. cerevisiae mec2-1 strain, at 5.0 µM (retest, dose inferred, filed as 0.5), active compounds read high
This is part of a sample that, as a whole, favours compounds with a hit. Of some 79,000 tested, about 15% had one in any assay.
Recorded growth inhibition for the following molecules
Value expressed in %; do not type the unit.

[[record]]
molecule = "COc1ccc2c(Cc3ccccc3)c3[n+](cc2c1OC)CCc1cc2c(cc1-3)OCO2"
measured_quantity = "growth inhibition"
endpoint_result = 8

[[record]]
molecule = "O=C1CC(c2ccccc2Cl)C(c2ccccc2Cl)C1 (stereo not given)"
measured_quantity = "growth inhibition"
endpoint_result = -6

[[record]]
molecule = "C#CCCCCCOC(=O)c1cc([N+](=O)[O-])cc([N+](=O)[O-])c1"
measured_quantity = "growth inhibition"
endpoint_result = 99

[[record]]
molecule = "COc1ccc(N=Nc2ccc3oc(=O)c(C(=O)Nc4ccccc4C)cc3c2)cc1"
measured_quantity = "growth inhibition"
endpoint_result = -18

[[record]]
molecule = "CN(C)NC(=S)C(F)(F)F"
measured_quantity = "growth inhibition"
endpoint_result = 1


**Query** Identify measured growth inhibition corresponding to NNC(=O)N/N=C(\CC1(O)C(=O)Nc2c(Cl)ccc(Cl)c21)c1ccc(F)cc1 (stereo not given)
**Result** 50

**Query** Identify measured growth inhibition associated with O=C1OC(C2OC(=O)C(=O)C2C(=O)c2ccc(Cl)cc2)C(C(=O)c2ccc(Cl)cc2)C1=O (stereo not given)
**Result** -3

**Query** Determine its reported growth inhibition: "O=C(O)c1ccccc1C(c1ccccc1)c1ccccc1"
**Result** -8

**Query** Look up and state reported growth inhibition for "O=C(/C=C\c1cccc2ccccc12)c1ccccn1"
**Result** 4

**Query** Output measured growth inhibition for this item: CC(CCC(=O)O)[C@H]1CCC2[C@@H]3CC(O)[C@@H]4CC(O)CC[C@]4(C)C3CC[C@@]21C (stereo not given in full)
**Result** -10
